- System: A549
- testSummary: NCI tumour cell line growth inhibition, 48 h
Activity calls are given as the source filed them. Rule as the data show it: active = GI50 up to about 1.1 µM and inactive = higher.
Write down the outcome that applies. Available outcomes: active, inactive

The following compounds have reported results that may help.
Write down the call the test reported for this compound. Item: Nc1cc2c3c(cccc3c1)C(=O)N(c1ccc(OCCN3CCCCC3)cc1)C2=O
inactive

Write down the call the test reported for this compound. Item: CN1S(=O)(=O)N(C)P12(N=P(CP(=NP13(N(C)S(=O)(=O)N1C)N(C)S(=O)(=O)N3C)(c1ccccc1)c1ccccc1)(c1ccccc1)c1ccccc1)N(C)S(=O)(=O)N2C
inactive

Write down the call the test reported for this compound. Item: C[N+]1(CCN[N+]2(C)CCCCC2)CCc2ccccc2C1 (stereo unspecified)
inactive

Others:
Write down the call the test reported for this compound. Item: Clc1cc2ncn(C3CCCCO3)c2cc1Cl (stereo unspecified)
inactive

Write down the call the test reported for this compound. Item: CC(C)(Br)C(=O)N1CCN(C(c2ccccc2)c2ccccc2)CC1
inactive

Write down the call the test reported for this compound. Item: CC(=O)OCC12CCC3C4(C)CCCC(C)(C)C4CCC3(C)C1CC(C1=CC(=O)OC1O)O2 (stereo unspecified)
inactive

Write down the call the test reported for this compound. Item: N#C/C(=C1\SC(/N=N/c2ccc(Cl)cc2)C(=O)N1c1ccccc1)c1nc2ccccc2[nH]1 (stereo unspecified)
inactive

Write down the call the test reported for this compound. Item: C=CC/C(C(=O)OC)=C(/C(=O)OC)N(CCC)CCC
inactive

* * *

- Test system: M14
- testSummary: NCI tumour cell line growth inhibition, 48 h
Active and inactive are the calls of the source. No stated cut-off is given here; in the data, active = GI50 up to about 1.1 µM and inactive = higher.
Entries and their measured GI50 follow.

Guide cases for GI50, answers given:
Fill blank: measured GI50 of the compound CN1c2c(O)nc(N)nc2NCC1CCNc1ccc(C(=O)NC(CCC(=O)O)C(=O)O)cc1 (stereo unspecified) is ____.
10.3 µM (inactive)

Fill blank: measured GI50 of the compound S=c1c2cc(I)ccc2nc(S)n1Cc1ccccc1 is ____.
3.9 µM (inactive)

Fill blank: measured GI50 of the compound CC(C)/C(Cl)=N\OC(=O)Nc1ccc(F)cc1 is ____.
4.06 µM (inactive)

Fill blank: measured GI50 of the compound C=C=C(CC(CC(=C)Br)(C(=O)OC)C(=O)OC)S(=O)(=O)c1ccccc1 is ____.
1.96 µM (inactive)

Fill blank: measured GI50 of the compound C=CCN1C(=O)N/C(=C\c2ccc(Cl)cc2)C1=O is ____.
> 100 µM (inactive)

Others:
Fill blank: measured GI50 of the compound CC1(C)CCC[C@@]2(C)C1CC[C@H]1CC(O)C3(C)CCC12C3 (stereo partly specified) is ____.
17.1 µM (inactive)

Fill blank: measured GI50 of the compound COc1cc(/C=C2\N=C(c3ccccc3)N(c3nc4c(Cl)cc(Cl)cc4s3)C2=O)ccc1O is ____.
40.5 µM (inactive)

Fill blank: measured GI50 of the compound CC(C)C(O)(C(C)C)C(C)C is ____.
> 100 µM (inactive)

Fill blank: measured GI50 of the compound Cc1ccc2c(ccc3c[n+]4ccccc4c(C)c32)c1.[O-][Cl+3]([O-])([O-])[O-] is ____.
5.46 µM (inactive)

Fill blank: measured GI50 of the compound O=[N+]([O-])C[C@@]12O[C@]3(O)C4C5CC(C6C5C3C61)C42 (stereo partly specified) is ____.
> 100 µM (inactive)

Fill blank: measured GI50 of the compound Cc1c(C(C)C)cc(OCCO)cc1C(C)C is ____.
38.8 µM (inactive)
